Can you tell me cell viability for the items I'm about to list?
- Tested on: U2OS
- ASSAY_DETAILS: cell viability relative to DMSO; higher = less toxic
- APPLIED_CONDITIONS: 72 h; 100 nM
Numeric answer only, unit % assumed.

The molecule O=C1c2cccc(O)c2C(=O)c2c(O)cc(CO)cc21 [aloe-emodin] on U2OS: cell viability was 98.6

Given the molecule O=C(O)c1ccc2cc(-c3ccc(O)c(C45CC6CC(CC(C6)C4)C5)c3)ccc2c1 [CD-437] and test system U2OS, the measured cell viability is 98.7

Noted cell viability for CC(C)[C@@H](C)/C=C/[C@@H](C)[C@H]1CC[C@H]2C3=CC=C4C[C@@H](O)CC[C@]4(C)[C@H]3CC[C@]12C [ergosterol] , tested on U2OS: 97.8

# "NC(=O)CCCCn1ccc(/N=C(\N)NCC(F)(F)F)n1" with U2OS: cell viability is 104

Record CC1(C)CC(=O)c2c(C(F)(F)F)nn(-c3ccc(C(N)=O)c(N[C@H]4CC[C@H](OC(=O)CN)CC4)c3)c2C1 [SNX-5422] / U2OS, cell viability recorded as 68.9

Observed cell viability, U2OS, CCCN(CCC)C(=O)Cc1c(-c2ccc(Cl)cc2)nc2ccc(Cl)cn12 [alpidem] : 95.9

====

Answer each item with its documented cell viability.
- Tested on: HepG2
- ASSAY_DETAILS: cell viability relative to DMSO; higher = less toxic
- APPLIED_CONDITIONS: 72 h; 1000 nM
Use % as the unit, but write only the number.

Looking up "C[N+](C)(C)CC(=O)O" , I found its cell viability recorded as 98.6

Briefly, cell viability measured for "Oc1c(CN2CCCC2)cc(COCc2ccccc2)c2cccnc12" : 81.6

Documented cell viability of O=C(O)c1ccc(NC(=O)[C@H](Cc2ccc(O)cc2)NC(=O)c2ccccc2)cc1 [bentiromide] : 106

====

Provide the recorded drug sensitivity score for the entries that follow.
- System: Vero E6
- ASSAY_DETAILS: drug sensitivity score (DSS) for viability; higher = more toxic; extreme values may be limits of the assay
- APPLIED_CONDITIONS: 72 h
Number only, please.

Looking up "CC[C@H]1OC(=O)[C@H](C)[C@@H](O[C@H]2C[C@@](C)(OC)[C@@H](O)[C@H](C)O2)[C@H](C)[C@@H](O[C@@H]2O[C@H](C)C[C@H](N(C)C)[C@H]2O)[C@](C)(O)C[C@@H](C)C(=O)[C@H](C)[C@@H](O)[C@]1(C)O" , I found its drug sensitivity score recorded as 0

Query CCCCN1CCCC1CNC(=O)c1cc(C#N)c2ccccc2c1OC (stereo unspecified) [nafadotride] yields drug sensitivity score of 0

Lab book: drug sensitivity score of "O=C(Nc1ccc(CN2CCOCC2)cc1)c1ccc(-c2cccc(Cl)c2)o1" noted as 0

Measured drug sensitivity score of "O=C(Nc1ccccc1)Nc1ccc(-c2ccc(C(=O)[C@@H]3CCC[C@@H]3C(=O)O)cc2)cc1" : 0

Given item C[C@H](NCc1ccc(OCc2ccccc2F)cc1)C(N)=O [priralfinamide] , the value recorded as its drug sensitivity score is 0

get_value(item= "O=C1C[C@@]2(C(=O)N1)C(=O)N(Cc1ccc(Br)cc1F)C(=O)c1cccn12" , readout=drug sensitivity score) returns 0

Entry "C[C@H](Nc1cc2c(-c3ccc4c(c3)OCO4)noc2cn1)c1ccccc1" — recorded drug sensitivity score = 0

GET /value?item= OC(CCN1CCCCC1)(c1ccccc1)C1CCCCC1 (stereo unspecified) &field=drug sensitivity score returns 0.5

// field: drug sensitivity score; key: "c1ccc(CN2CCC3(CCc4ccccc43)CC2)cc1" ; value = 0

drug sensitivity score recorded for this compound, "C[N+](C)(C)CCOC(N)=O" , is 0

Data point: "Cc1cc(CN)cc(C)c1NC(=O)c1ccc(-c2cc(Cl)ccc2Cl)o1" ; drug sensitivity score = 0

Reported drug sensitivity score for "C[C@]12CCC(=O)C=C1C=C[C@@H]1[C@@H]2CC[C@@]2(C)[C@H]1CC[C@@]21CCC(=O)O1" was 0

Consider "OC[C@@H](O)[C@H]1O[C@@H]2O[C@H](C(Cl)(Cl)Cl)O[C@@H]2[C@H]1O" . Its measured drug sensitivity score is 0

Entry "COc1ccc(-c2ccc3ncc4c(c3c2)n(-c2ccc(N3CCNCC3)c(C(F)(F)F)c2)c(=O)n4C)cn1" — recorded drug sensitivity score = 21

For record "COC(=O)[C@]12CCC(C)(C)C[C@H]1[C@H]1C(=O)C=C3[C@@]4(C)C=C(C#N)C(=O)C(C)(C)[C@@H]4CC[C@@]3(C)[C@]1(C)CC2" the listed drug sensitivity score is 18.3

Recorded drug sensitivity score (compound "CC1(C)Oc2ccc(C#N)cc2[C@@H](N2CCCC2=O)[C@@H]1O" ): 0

Lab note: "CCCCc1nc(C)c(CC(=S)N(C)C)c(=O)n1Cc1ccc(-c2ccccc2-c2nnn[nH]2)cc1" gave drug sensitivity score of 0

So for "C/C=C(/C(=C/C)c1ccc(O)cc1)c1ccc(O)cc1" , the logged drug sensitivity score turned out to be 0

Given item "Nc1ncnc2[nH]nc(Nc3ccc(F)cc3)c12" , the value recorded as its drug sensitivity score is 2.3

The value of drug sensitivity score measured for the compound "CC(=O)N[C@@H](CSC/C=C(\C)CC/C=C(\C)CCC=C(C)C)C(=O)O" turned out to be 0

The recorded drug sensitivity score for "COc1cccc(C=NCCN=Cc2cccc(OC)c2[O-])c1[O-].[Cl-].[Mn+3]" is 0

====

- System: U2OS
- ASSAY_DETAILS: cell viability relative to DMSO; higher = less toxic
- APPLIED_CONDITIONS: 72 h; 1000 nM
RECORDED_ENDPOINT: cell viability (%)
Give the number; % is assumed, so skip it.

Value sought: cell viability, system U2OS, item "Cc1cc(-c2nncc3c(C(C)(C)C)c(OCc4ncnn4C)nn23)no1" . Result: 101

GET /values?item= "C[N+](C)(C)CC(=O)O" &system= U2OS returns cell viability: 104

Item: "CCNC(=O)Nc1ccc(-c2nc3c(c(N4CCOC[C@@H]4C)n2)CCN(C2COC2)C3)cc1" | System: U2OS | cell viability: 66.2

Param item: O=C(O)c1ccc(NC(=O)[C@H](Cc2ccc(O)cc2)NC(=O)c2ccccc2)cc1 [bentiromide] ; param system: U2OS; output cell viability: 99.5

Field cell viability (system: U2OS) for entry C[N+]1([O-])[C@@H]2CC[C@H]1C[C@@H](OC(=O)C(CO)c1ccccc1)C2 (some centres not stated) [atropine-oxide] = 102

Lab entry: U2OS assay, compound C[C@@H](NC(=O)[C@@H](N)Cc1ccc(O)cc1)C(=O)NCC(=O)N(C)[C@@H](Cc1ccccc1)C(=O)N[C@H](CO)CC[S+](C)[O-] (some centres not stated) , cell viability = 101

Bench note, U2OS: Cc1cccc(C)c1NC(=O)CC12CCCN1CCC2 [pilsicainide] , cell viability reads 94.7

Form field, cell viability with U2OS, item O=C1CCC[C@@H]2[C@H]3CCC[N+]4([O-])CCC[C@@H](CN12)[C@@H]34 (some centres not stated) : 102

// cell viability (U2OS) for "COC1CCN(C(=O)c2cc(Cc3n[nH]c(=O)c4ccccc34)ccc2F)CC1" = 94.4

Reported U2OS cell viability for item "CC1(N2CCC(n3c([C@@H]4CCCNC4)nc4ccccc43)CC2)CCCCCCC1" was 100

Record "C[C@H](CCC(=O)O)[C@H]1CC[C@H]2[C@@H]3[C@@H](O)C[C@@H]4C[C@H](O)CC[C@]4(C)[C@H]3CC[C@]12C" ; system U2OS; cell viability = 93.2

The reported U2OS cell viability of "CCc1cncnc1N1CCN(Cc2nc3cc(C(F)(F)F)ccc3[nH]2)CC1" is 97.7

====

- System: HepG2
- ASSAY_DETAILS: drug sensitivity score (DSS) for viability; higher = more toxic; extreme values may be limits of the assay
- APPLIED_CONDITIONS: 72 h
Can you tell me drug sensitivity score for the items I'm about to list?

Entry O=C(O)/C=C/c1ccc(O)c(O)c1 [caffeic-acid] , drug sensitivity score reported as 0

Given item CC1(C)OC2(C)C(O)CC1CC2O (configuration not stated) [epomediol] , the value recorded as its drug sensitivity score is 0

Item: NC(=O)NO [hydroxyurea] | drug sensitivity score: 0

The reported drug sensitivity score of the compound CCN(CC)CC1CCCCN1CC(=O)N1c2ccccc2C(=O)Nc2cccnc21 (configuration not stated) [otenzepad] was 0

For this compound ( OC(CCN1CCCCC1)(c1ccccc1)C1CCCCC1 (configuration not stated) [trihexyphenidyl] ), measured drug sensitivity score is 0.3

// field: drug sensitivity score; key: COc1nc(N)nc2c1ncn2[C@@H]1O[C@H](CO)[C@@H](O)[C@@H]1O [nelarabine] ; value = 0

O=C(/C=C/c1ccc(O)c(O)c1)c1ccc(O)cc1O [butein] has a reported drug sensitivity score of 3.2

Short answer for O=C(COc1ccc(C(=O)c2ccccc2)cc1)NC1CCN(Cc2ccccc2)CC1 [adiporon] : drug sensitivity score was 0

// drug sensitivity score lookup, compound = CCOc1cccc(NC(=O)c2ccc(N3CCCC3)c(C(F)(F)F)c2)c1 [EPPTB] , result: 0

For this compound ( CC1CC(OC(=O)C(O)c2ccccc2)CC(C)(C)N1C (configuration not stated) [eucatropine] ), measured drug sensitivity score is 0

Sample NC(=O)CC[C@H](NC(=O)Cc1ccccc1)C(=O)O [phenylacetylglutamine] ; drug sensitivity score observed: 0

// field: drug sensitivity score; key: "CN1CCN(c2cccc(Nc3nc4c(-c5ccc(S(C)(=O)=O)cc5)cccn4n3)c2)CC1" ; value = 3.6
